Target: Tyrosine-protein phosphatase non-receptor type 1 (Homo sapiens) (UniProt P18031)
Assay: Inhibition of PTP1B in human HepG2 cells assessed as improvement in insulin-induced 2-NBDG uptake at 20 uM incubated for 24 hrs prior to compound washout followed by insulin stimulation for 20 mins and subsequent 2-NBDG addition measured after 60 mins by FACS analysis relative to control
Format: cell-based

compound: CCc1ccc(CCOc2ccc(CC3SC(=O)NC3=O)cc2)nc1 (centres undefined)
inhibition: 63.5%
//
compound: CCOS(=O)(=O)/C=C/c1ccc(OCC2=CC[C@@H]3C(C(=O)Nc4ccc(Oc5ccc(Br)cc5Cl)cc4)=CO[C@@H](OCc4ccccc4)[C@H]23)cc1
inhibition: 64.4%
//
compound: CCOS(=O)(=O)/C=C/c1ccc(CNC(=O)C2=CO[C@@H](O[C@@H]3O[C@H](COCc4ccccc4)[C@@H](OCc4ccccc4)[C@H](OCc4ccccc4)[C@H]3OCc3ccccc3)[C@@H]3C(COCc4ccccc4)=CC[C@H]23)cc1
inhibition: 49.8%
//
compound: CCOS(=O)(=O)/C=C/c1ccc(OCC2=CC[C@@H]3C(C(=O)Nc4ccc(Oc5ccc(-c6ccccc6)cc5)cc4)=CO[C@@H](OC)[C@H]23)cc1
inhibition: 69.6%

====

Measured pIC50 values are reported for all entries that follow.
Molecular target: Tyrosine-protein phosphatase non-receptor type 1 (Homo sapiens)
Sequence (P18031 whole entry): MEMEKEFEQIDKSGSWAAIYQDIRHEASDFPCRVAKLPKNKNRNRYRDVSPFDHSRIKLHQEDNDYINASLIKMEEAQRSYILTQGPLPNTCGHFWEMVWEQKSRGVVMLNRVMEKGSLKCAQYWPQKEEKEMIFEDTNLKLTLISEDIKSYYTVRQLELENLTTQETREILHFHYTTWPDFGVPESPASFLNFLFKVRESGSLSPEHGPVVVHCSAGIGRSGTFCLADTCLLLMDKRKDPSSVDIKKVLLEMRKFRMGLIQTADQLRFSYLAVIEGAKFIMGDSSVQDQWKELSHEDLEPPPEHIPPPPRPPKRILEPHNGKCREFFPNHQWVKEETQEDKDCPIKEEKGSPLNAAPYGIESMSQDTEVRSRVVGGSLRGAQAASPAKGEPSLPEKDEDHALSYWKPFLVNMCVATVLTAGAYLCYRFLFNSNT
Assay: Inhibition of recombinant human PTP1B using pNPP as substrate measured after 30 mins
pIC50: −log10 of the molar value.

querySmiles: O=C(Nc1ccc(Oc2ccccc2)cc1)C1=CO[C@@H](O[C@@H]2O[C@H](CO)[C@@H](O)[C@H](O)[C@H]2O)[C@@H]2C(CO)=CC[C@H]12
pIC50: 4.60
//
querySmiles: CCc1ccccc1NC(=O)C1=CO[C@@H](O[C@@H]2O[C@H](CO)[C@@H](O)[C@H](O)[C@H]2O)[C@@H]2C(CO)=CC[C@H]12
pIC50: 4.74
//
querySmiles: CCOS(=O)(=O)/C=C/c1ccc(CNC(=O)C2=CO[C@@H](O[C@@H]3O[C@H](COCc4ccccc4)[C@@H](OCc4ccccc4)[C@H](OCc4ccccc4)[C@H]3OCc3ccccc3)[C@@H]3C(COCc4ccccc4)=CC[C@H]23)cc1
pIC50: 6.46
//
querySmiles: CCOS(=O)(=O)/C=C/c1ccc(OCC2=CC[C@@H]3C(C(=O)Nc4ccc(Oc5ccc6ccccc6c5)cc4)=CO[C@@H](OC)[C@H]23)cc1
pIC50: 6.12
//
querySmiles: O=C(O)C1=CO[C@@H](O[C@@H]2O[C@H](COCc3ccccc3)[C@@H](OCc3ccccc3)[C@H](OCc3ccccc3)[C@H]2OCc2ccccc2)[C@@H]2C(COCc3ccccc3)=CC[C@H]12
pIC50: 6.42
